Target: ATX (human His-tagged) (Homo sapiens (Human))
pIC50: −log10 of the molar value.
Binary call on pIC50: Satisfied from 7 upward, Not satisfied beneath that.

Worked examples follow.
{"compound": "N#Cc1ccc(/C=C/C(=O)N2C[C@H]3CCN(C(=O)c4ccc5[nH]nnc5c4)C[C@@H]3C2)cc1 (single isomer, unassigned) [Example 15.33]", "target or system": "ATX (human His-tagged) (Homo sapiens (Human))", "label value": "Not satisfied"}
{"compound": "O=C(CCc1ccccc1C1CC1)N1CC[C@@H]2CN(C(=O)c3ccc4[nH]nnc4c3)C[C@@H]2CC1 [Example 17.19]", "target or system": "ATX (human His-tagged) (Homo sapiens (Human))", "label value": "Satisfied"}
{"compound": "CN(Cc1cnn[nH]1)C(=O)N1C[C@H]2CCN(C(=O)/C=C/c3ccc(OC(F)(F)F)c(F)c3)CC[C@H]2C1 [Example 15.61]", "target or system": "ATX (human His-tagged) (Homo sapiens (Human))", "label value": "Satisfied"}
{"compound": "CS(=O)(=O)c1cc(Cl)cc(COC(=O)N2CC[C@@H]3CN(C(=O)c4ccc5[nH]nnc5c4)C[C@@H]3CC2)c1 [Example 4.06]", "target or system": "ATX (human His-tagged) (Homo sapiens (Human))", "label value": "Satisfied"}
{"compound": "O=C(c1ccc(-c2ccc(Cl)cc2)cc1)N1C[C@H]2CN(C(=O)c3ccc4[nH]nnc4c3)C[C@@H]2C1 (stereo in doubt) [Example 19.13]", "target or system": "ATX (human His-tagged) (Homo sapiens (Human))", "label value": "Satisfied"}

Qu. Is the recorded value of pIC50 equal to or greater than 7 for this compound? O=C(OCc1cc(Cl)cc(Cl)c1)N1CC[C@@H]2CN(C(=O)c3ccc4[nH]nnc4c3)C[C@H]2C1 (single isomer, unassigned) [Example 11A]
Ans. Satisfied

Qu. Is pIC50 for COc1cc(C#N)ccc1OCC(=O)N1C[C@@H]2CN(C(=O)c3ccc4[nH]nnc4c3)C[C@H]2C1 [Example 15.93] at or above 7?
Ans. Not satisfied

Qu. Quick check, pIC50 >= 7? O=C(/C=C/c1ccc(OC(F)(F)F)cc1)N1C[C@@H]2CN(C(=O)c3ccc4[nH]nnc4c3)CC[C@H]2C1 (single isomer, unassigned) [Example 15.26]
Ans. Satisfied

Qu. Quick check: does O=C(CCc1ccc(OC(F)(F)F)cc1)N1CC[C@@H]2CN(C(=O)c3ccc4[nH]nnc4c3)C[C@H]2C1 (relative stereo) [Example 17.15] have pIC50 greater than or equal to 7?
Ans. Satisfied

Qu. hey, is pIC50 for this one >= 7? Cc1ccc(OCC(=O)N2CC[C@@H]3CN(C(=O)c4ccc5[nH]nnc5c4)C[C@@H]3CC2)c(C2CCN(C)C2)c1 (stereo partly drawn) [Example 1.36]
Ans. Not satisfied

Qu. Dear colleague, could you confirm whether CC(C)(Cc1cccc(Cl)c1)C(=O)N1CC[C@@H]2CN(C(=O)NCc3cnn[nH]3)C[C@@H]2CC1 [Example 9.08] has pIC50 at or above 7?
Ans. Not satisfied

Qu. Decide: is the reported value of pIC50 for N#Cc1ccc(/C=C/C(=O)N2CC[C@@H]3CN(C(=O)c4ccc5[nH]nnc5c4)C[C@@H]3CC2)cc1 [Example 15.11] equal to or greater than 7?
Ans. Satisfied

Qu. Kindly determine if pIC50 recorded for O=C(OCc1ccc(OC(F)(F)F)cc1)N1C[C@@H]2CN(C(=O)c3cc(F)c4[nH]nnc4c3)C[C@H]2C1 [Example 1.53] is above or exactly 7.
Ans. Satisfied
